- EXPERIMENT_NOTES: Stability assay in 25% TIDE 2X detergent without DTPA (residual Abz-AGLA-Nba protease activity)
- Assay type: physicochemical
- COND: 180 min at 50°C; variant residual AGLA activity divided by wild-type residual activity
ENDPOINT_LABEL: PI (relative stability), 25% TIDE 2X without DTPA
Answers are plain numbers.

So for Q128C: single-substitution thermolysin variant (SEQ ID NO:3 numbering) (protein, listed as Geobacillus caldoproteolyticus) ITGTSTVGVGRGVLGDQKNINTTYSTYYYLQDNTRGNGIFTYDAKYRTTLPGSLWADADNQFFASYDAPAVDAHYYAGVTYDYYKNVHNRLSYDGNNAAIRSSVHYSQGYNNAFWNGSQMVYGDGDGCTFIPLSGGIDVVAHELTHAVTDYTAGLIYQNESGAINEAISDIFGTLVEFYANKNPDWEIGEDVYTPGISGDSLRSMSDPAKYGDPDHYSKRYTGTQDNGGVHINSGIINKAAYLISQGGTHYGVSVVGIGRDKLGKIFYRALTQYLTPTSNFSQLRAAAVQSATDLYGSTSQEVASVKQAFDAVGVK , the logged PI (relative stability), 25% TIDE 2X without DTPA turned out to be 1.05
